Origin of measurements: ChEMBL document CHEMBL2375313

# System: NCI-H23
# EXPERIMENT: Cytotoxicity against human NCI-H23 cells assessed as growth inhibition at 10 uM after 48 hrs by sulphorhodamine B assay
# Type: functional
# MEASUREMENT_CONTEXT: NCI-H23, 48 h, read-out: GI
QUANTITY_NAME: inhibition of growth at 10 µM (%)
I only need the number, in %, no unit after it.

>>> observed("COc1ccc(-c2c3c(nc4nc[nH]c(=O)c24)C(C)CCC3)cc1 (centres undefined)")
13.8
>>> observed("COc1ccc(-c2c3c(nc4ncn(N)c(=N)c24)C(C)CCC3)cc1 (centres undefined)")
14.4
>>> observed("CC1CCCc2c1nc1[nH]c(=O)nc(N)c1c2-c1ccc(Cl)cc1 (centres undefined)")
10
>>> observed("CC1CCCc2c1nc1nc(SCC(=O)c3ccccc3)nc(N)c1c2-c1ccc(Cl)cc1 (centres undefined)")
24.7
>>> observed("COc1ccc(-c2c(C#N)c(N)nc3c2CCCC3C)cc1 (centres undefined)")
11

Now take the following molecule into account.
Which inhibition of growth at 10 µM reading was recorded for the molecule CC1CCCc2c1nc(NC(=S)NC(=O)c1ccccc1)c(C#N)c2-c1ccc(Cl)cc1 (centres undefined) ? 10

* * *

# System: HOP-92
# EXPERIMENT: Cytotoxicity against human HOP92 cells assessed as growth inhibition at 10 uM after 48 hrs by sulphorhodamine B assay
# Format: functional
# MEASUREMENT_CONTEXT: HOP-92, 48 h, read-out: GI
QUANTITY_NAME: inhibition of growth at 10 µM (%)
I only need the number, in %, no unit after it.

>>> observed("CCSc1nc(N)c2c(-c3ccc(Cl)cc3)c3c(nc2n1)C(C)CCC3 (stereo not given)")
35.2
>>> observed("CC1CCCc2c1nc1nc(SCC(=O)c3ccccc3)nc(N)c1c2-c1ccc(Cl)cc1 (stereo not given)")
90
>>> observed("CC1CCCc2c1nc(NC(=S)NC(=O)c1ccccc1)c(C#N)c2-c1ccc(Cl)cc1 (stereo not given)")
38.2
>>> observed("CC1CCCc2c1nc1[nH]c(=O)nc(N)c1c2-c1ccc(Cl)cc1 (stereo not given)")
27.7
>>> observed("COc1ccc(-c2c(C#N)c(N)nc3c2CCCC3C)cc1 (stereo not given)")
20
>>> observed("CC1CCCc2c1nc(N)c(C#N)c2-c1ccc(Cl)cc1 (stereo not given)")
10

Now take the following molecule into account.
Which inhibition of growth at 10 µM reading was recorded for the molecule CC1CCCc2c1nc1[nH]c(=S)n(-c3ccccc3)c(=N)c1c2-c1ccc(Cl)cc1 (stereo not given) ? 26.2

* * *

# Test system: NCI-H23
# EXPERIMENT: Cytotoxicity against human NCI-H23 cells assessed as growth inhibition at 10 uM after 48 hrs by sulphorhodamine B assay
# Type: functional
# MEASUREMENT_CONTEXT: NCI-H23, 48 h, read-out: GI
QUANTITY_NAME: inhibition of growth at 10 µM

Here are 3 compounds together with their reported answers.
>>> observed("CCSc1nc(N)c2c(-c3ccc(OC)cc3)c3c(nc2n1)C(C)CCC3 (stereo unspecified)")
"< 10%"
>>> observed("COc1ccc(-c2c3c(nc4nc(C)[nH]c(=O)c24)C(C)CCC3)cc1 (stereo unspecified)")
"< 10%"
>>> observed("CC1CCCc2c1nc1[nH]c(=S)nc(N)c1c2-c1ccc(Cl)cc1 (stereo unspecified)")
"10.1%"

Which inhibition of growth at 10 µM reading was recorded for the compound CCSc1nc(N)c2c(-c3ccc(Cl)cc3)c3c(nc2n1)C(C)CCC3 (stereo unspecified) ? 15.3%

Which inhibition of growth at 10 µM reading was recorded for the compound CC1CCCc2c1nc(N)c(C#N)c2-c1ccc(Cl)cc1 (stereo unspecified) ? < 10%

Which inhibition of growth at 10 µM reading was recorded for the compound CC1CCCc2c1nc1[nH]c(=S)n(-c3ccccc3)c(=N)c1c2-c1ccc(Cl)cc1 (stereo unspecified) ? 11.5%

* * *

# Test system: RPMI-8226
# EXPERIMENT: Cytotoxicity against human RPMI8226 cells assessed as growth inhibition at 10 uM after 48 hrs by sulphorhodamine B assay
# Assay type: functional
# MEASUREMENT_CONTEXT: RPMI-8226, 48 h, read-out: GI
QUANTITY_NAME: inhibition of growth at 10 µM

Here are 3 compounds together with their reported answers.
>>> observed("CC1CCCc2c1nc1nc(SCC(=O)c3ccccc3)nc(N)c1c2-c1ccc(Cl)cc1 (stereo not given)")
"69.2%"
>>> observed("CCSc1nc(N)c2c(-c3ccc(Cl)cc3)c3c(nc2n1)C(C)CCC3 (stereo not given)")
"33.8%"
>>> observed("COc1ccc(-c2c3c(nc4ncn5ncnc5c24)C(C)CCC3)cc1 (stereo not given)")
"31%"

Now take the following compound into account.
Which inhibition of growth at 10 µM reading was recorded for the compound COc1ccc(-c2c3c(nc4nc(C)[nH]c(=O)c24)C(C)CCC3)cc1 (stereo not given) ? 21.8%

* * *

# System: SK-OV-3
# EXPERIMENT: Cytotoxicity against human SKOV3 cells assessed as growth inhibition at 10 uM after 48 hrs by sulphorhodamine B assay
# Format: functional
# MEASUREMENT_CONTEXT: SK-OV-3, 48 h, read-out: GI
QUANTITY_NAME: inhibition of growth at 10 µM

Here are 2 compounds together with their reported answers.
>>> observed("COc1ccc(-c2c3c(nc4nc(C)[nH]c(=O)c24)C(C)CCC3)cc1 (stereo not given)")
"< 10%"
>>> observed("CC1CCCc2c1nc1nc(SCC(=O)c3ccccc3)nc(N)c1c2-c1ccc(Cl)cc1 (stereo not given)")
"< 10%"

Which inhibition of growth at 10 µM reading was recorded for the compound CCSc1nc(N)c2c(-c3ccc(Cl)cc3)c3c(nc2n1)C(C)CCC3 (stereo not given) ? 15.2%

Which inhibition of growth at 10 µM reading was recorded for the compound CC1CCCc2c1nc1[nH]c(=O)nc(N)c1c2-c1ccc(Cl)cc1 (stereo not given) ? < 10%

Which inhibition of growth at 10 µM reading was recorded for the compound COc1ccc(-c2c3c(nc4ncn5ncnc5c24)C(C)CCC3)cc1 (stereo not given) ? < 10%

Which inhibition of growth at 10 µM reading was recorded for the compound COc1ccc(-c2c3c(nc4ncn(N)c(=N)c24)C(C)CCC3)cc1 (stereo not given) ? < 10%

Which inhibition of growth at 10 µM reading was recorded for the compound COc1ccc(-c2c3c(nc4nc[nH]c(=O)c24)C(C)CCC3)cc1 (stereo not given) ? < 10%

Which inhibition of growth at 10 µM reading was recorded for the compound CC1CCCc2c1nc1ncnc(N)c1c2-c1ccc(Cl)cc1 (stereo not given) ? 12%

Which inhibition of growth at 10 µM reading was recorded for the compound COc1ccc(-c2c3c(nc4ncnc(N)c24)C(C)CCC3)cc1 (stereo not given) ? < 10%

Which inhibition of growth at 10 µM reading was recorded for the compound COc1ccc(-c2c(C#N)c(N)nc3c2CCCC3C)cc1 (stereo not given) ? < 10%

* * *

Reported inhibition of growth at 10 µM values for the following molecules.
# Tested on: HL-60(TB)
# EXPERIMENT: Cytotoxicity against human HL-60(TB) cells assessed as growth inhibition at 10 uM after 48 hrs by sulphorhodamine B assay
# Assay type: functional
# MEASUREMENT_CONTEXT: HL-60, 48 h, read-out: GI
I only need the number, in %, no unit after it.

>>> observed("CC1CCCc2c1nc(NC(=S)NC(=O)c1ccccc1)c(C#N)c2-c1ccc(Cl)cc1 (centres undefined)")
30
>>> observed("CC1CCCc2c1nc1[nH]c(=S)n(-c3ccccc3)c(=N)c1c2-c1ccc(Cl)cc1 (centres undefined)")
24.2

Now take the following molecule into account.
Which inhibition of growth at 10 µM reading was recorded for the molecule CC1CCCc2c1nc1[nH]c(=O)nc(N)c1c2-c1ccc(Cl)cc1 (centres undefined) ? 24.6

* * *

# Test system: SNB-75
# EXPERIMENT: Cytotoxicity against human SNB75 cells assessed as growth inhibition at 10 uM after 48 hrs by sulphorhodamine B assay
# Format: functional
# MEASUREMENT_CONTEXT: SNB-75, 48 h, read-out: GI
QUANTITY_NAME: inhibition of growth at 10 µM (%)
I only need the number, in %, no unit after it.

>>> observed("CCSc1nc(N)c2c(-c3ccc(Cl)cc3)c3c(nc2n1)C(C)CCC3 (stereo not given)")
33
>>> observed("COc1ccc(-c2c3c(nc4ncnc(N)c24)C(C)CCC3)cc1 (stereo not given)")
20.5
>>> observed("CC1CCCc2c1nc(N)c(C#N)c2-c1ccc(Cl)cc1 (stereo not given)")
26.8
>>> observed("CC1CCCc2c1nc1[nH]c(=S)n(-c3ccccc3)c(=N)c1c2-c1ccc(Cl)cc1 (stereo not given)")
13.9
>>> observed("CC1CCCc2c1nc(NC(=S)NC(=O)c1ccccc1)c(C#N)c2-c1ccc(Cl)cc1 (stereo not given)")
15.7
>>> observed("CC1CCCc2c1nc1[nH]c(=O)nc(N)c1c2-c1ccc(Cl)cc1 (stereo not given)")
11
>>> observed("COc1ccc(-c2c3c(nc4nc[nH]c(=O)c24)C(C)CCC3)cc1 (stereo not given)")
34.3
>>> observed("CC1CCCc2c1nc1[nH]c(=S)nc(N)c1c2-c1ccc(Cl)cc1 (stereo not given)")
10.2
>>> observed("COc1ccc(-c2c(C#N)c(N)nc3c2CCCC3C)cc1 (stereo not given)")
25.3
>>> observed("COc1ccc(-c2c3c(nc4ncn(N)c(=N)c24)C(C)CCC3)cc1 (stereo not given)")
14.3

Which inhibition of growth at 10 µM reading was recorded for the molecule CC1CCCc2c1nc1ncnc(N)c1c2-c1ccc(Cl)cc1 (stereo not given) ? 21.5
